# EXPERIMENT NOTES: NCI Yeast Anticancer Drug Screen. Data for the sgs1 mgt1 strain (AID 161);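 also: 0% = growth of cultures given vehicle only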
# CONDITION LABEL: S. cerevisiae sgs1 mgt1 strain, at 50.0 µM (retest, dose inferred, filed as 5.0), stronger effect = higher value
This is part of a sample that, as a whole, favours compounds with a hit. Of some 79,000 tested, about 15% had one in any assay.
# reported growth inhibition; entries follow
Please give a number only; it is taken to be in %.

Query: Reported growth inhibition, molecule `COC(=O)[C@@]12OC[C@]34[C@H]([C@@H](O)[C@@H]1O)[C@@]1(C)CC(=O)C(OC(=O)CC(=O)OC5=C(C)[C@@H]6C[C@H]7OC(=O)[C@H](OC(=O)/C=C(\C)C(C)C)[C@H]8[C@]9(C(=O)OC)OC[C@]78[C@H]([C@@H](O)[C@@H]9O)[C@@]6(C)CC5=O)=C(C)[C@@H]1C[C@H]3OC(=O)[C@H](OC(=O)/C=C(\C)C(C)C)[C@@H]24` : ____
Reply: 98

Query: Reported growth inhibition, molecule O=C1C(Br)CCC1(c1ccccc1)c1ccccc1 (stereo unspecified) : ____
Reply: 97

Query: Reported growth inhibition, molecule `Cc1ccccc1NC(=O)CSC(N)=O` : ____
Reply: 36

Query: Reported growth inhibition, molecule `BrCN(CBr)c1ccc2c(c1)Cc1cc(Br)ccc1-2` : ____
Reply: 1

Query: Reported growth inhibition, molecule `Cn1c2ccccc2c2cc3cnccc3cc21` : ____
Reply: 82

Query: Reported growth inhibition, molecule `Clc1ccc2ccc3cccnc3c2n1` : ____
Reply: 86

====

# reported growth inhibition; entries follow
# EXPERIMENT NOTES: NCI Yeast Anticancer Drug Screen. Data for the sgs1 mgt1 strain (AID 161);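 also: 0% = growth of cultures given vehicle only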
# CONDITION LABEL: S. cerevisiae sgs1 mgt1 strain, at 50.0 µM (retest, dose inferred, filed as 5.0), stronger effect = higher value
Compounds without any hit were thinned out: in the full panel of roughly 79,000, 15% have a hit.
Please give a number only; it is taken to be in %.

The cases that follow already have their growth inhibition on record.
>  <MOLECULE>
CC(/C=C/NNC1=NC(c2ccccc2)C(c2ccccc2)=NN1)Sc1ccccc1N (stereo unspecified)

>  <UNIT TEXT>
%

>  <growth inhibition>
31

$$$$
>  <MOLECULE>
CC(Cl)C(=O)Nc1cc2ccccc2oc1=O (stereo unspecified)

>  <UNIT TEXT>
%

>  <growth inhibition>
4

$$$$
>  <MOLECULE>
CCOC(=O)Cc1csc2[n+]1C(=O)/C(=C/c1ccc(OC)c(OC)c1)S2

>  <UNIT TEXT>
%

>  <growth inhibition>
14

$$$$
>  <MOLECULE>
CCOC(=O)Oc1ccc(C)cc1[N+](=O)[O-]

>  <UNIT TEXT>
%

>  <growth inhibition>
2

$$$$
>  <MOLECULE>
[O-][n+]1c2c(cc3ccccc31)Cc1ccccc1-2

>  <UNIT TEXT>
%

>  <growth inhibition>
5

$$$$

Next:
Query: Reported growth inhibition, molecule `Cn1nc(-c2ccccc2NC(=O)C(F)(F)F)c(=O)n(C)c1=S` : ____
Reply: 25

====

# EXPERIMENT NOTES: NCI Yeast Anticancer Drug Screen. Data for the rad50 strain (AID 155);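 also: 0% = growth of vehicle-only cultures of the same strain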
# CONDITION LABEL: S. cerevisiae rad50 strain growth inhibition; at 50.0 µM; stronger effect = higher value
About 79,000 compounds went through this panel and 15% of them were active in at least one assay; those are over-represented in the sample as a whole.
QUANTITY NAME: growth inhibition (%)
Please give a number only; it is taken to be in %.

The cases that follow already have their growth inhibition on record.
>  <MOLECULE>
COC(=O)C1=C(C)NC(C)=C(C(=O)OC)C1c1ccc(/[N+]([O-])=C/c2ccccc2)cc1

>  <UNIT TEXT>
%

>  <growth inhibition>
85

$$$$
>  <MOLECULE>
CC(=O)Oc1c(C)cc(C)cc1Cc1cc(C(C)=O)cc(Cc2cc(C)cc(C)c2OC(C)=O)c1OC(C)=O

>  <UNIT TEXT>
%

>  <growth inhibition>
94.5

$$$$

Query: Reported growth inhibition, molecule O=C1OC(c2ccccc2)N/C1=C\c1ccc2c(c1)OCO2 (stereo not drawn) : ____
Reply: -45.7

Query: Reported growth inhibition, molecule `O=C(O)CCc1ccc2ccccc2c1` : ____
Reply: 62.8

Query: Reported growth inhibition, molecule CCCC(=O)OCC1CC2C=CC1C2 (stereo not drawn) : ____
Reply: -6.25

Query: Reported growth inhibition, molecule `O=P1(O)c2ccccc2CS(=O)(=O)Cc2ccccc21` : ____
Reply: 21.4

Query: Reported growth inhibition, molecule `CC(C)C(C)(C(=O)O)C(C)C` : ____
Reply: 13.8

====

# EXPERIMENT NOTES: NCI Yeast Anticancer Drug Screen. Data for the mlh1 rad18 strain (AID 175)
# CONDITION LABEL: S. cerevisiae mlh1 rad18 strain growth inhibition; at 50.0 µM; stronger effect = higher value
This is part of a sample that, as a whole, favours compounds with a hit. Of some 79,000 tested, about 15% had one in any assay.
QUANTITY NAME: growth inhibition (%)
Please give a number only; it is taken to be in %.

The cases that follow already have their growth inhibition on record.
>  <COMPOUND>
Cc1cccc(CC(C)(C)C)c1NC(=O)C(=O)C(C(=O)c1ccc2ccccc2c1)C1OC(=O)c2ccccc21 (stereo unspecified)

>  <growth inhibition (%)>
68.2

$$$$
>  <COMPOUND>
CC1SC2(C(=O)Nc3ccc(Br)cc32)N(c2ccc(Cl)cc2)C1=O (stereo unspecified)

>  <growth inhibition (%)>
-8.55

$$$$
>  <COMPOUND>
NC(=S)N/N=C1\NC(=O)/C(=C/c2ccc3c(c2)OCO3)S1

>  <growth inhibition (%)>
-14

$$$$
>  <COMPOUND>
c1ccc2c(c1)Cc1c-2nc2ccccc2c1N1CCOCC1

>  <growth inhibition (%)>
89.7

$$$$
>  <COMPOUND>
CCN(CC)CCCCCCNc1cc(C)cc2ccc(C)nc12

>  <growth inhibition (%)>
47.5

$$$$
>  <COMPOUND>
CN(C)CCC1(C2=CCCC2)CC/C(=C\c2ccc(Cl)cc2)C1=O (stereo unspecified)

>  <growth inhibition (%)>
87.5

$$$$

Query: Reported growth inhibition, compound `CN(C)c1ccc2c(NCCCCCCNc3ccnc4cc(N(C)C)ccc34)ccnc2c1` : ____
Reply: -5.8

Query: Reported growth inhibition, compound `Cc1ccccc1C(=N)c1ccccc1Cc1cccc2ccccc12` : ____
Reply: 91.2

Query: Reported growth inhibition, compound `NCC(=O)N/N=C/c1ccc([N+](=O)[O-])o1` : ____
Reply: 20.4

Query: Reported growth inhibition, compound Cc1ccc(NC(=O)CCCC(=O)C(C#N)c2ccccc2C)cc1C (stereo unspecified) : ____
Reply: 12.1

Query: Reported growth inhibition, compound `CC(=O)Oc1c2c(c(C)c3ccccc13)C(=O)c1cccnc1C2=O` : ____
Reply: 98.6

====

# EXPERIMENT NOTES: NCI Yeast Anticancer Drug Screen. Data for the bub3 strain (AID 167)
# CONDITION LABEL: S. cerevisiae bub3 mutant strain, at 5.0 µM (retest, dose inferred, filed as 0.5), stronger effect = higher value
This is part of a sample that, as a whole, favours compounds with a hit. Of some 79,000 tested, about 15% had one in any assay.
# reported growth inhibition; entries follow
Please give a number only; it is taken to be in %.

The cases that follow already have their growth inhibition on record.
>  <SMILES>
Cc1ccc(O)c(N=Nc2ccc(Cl)cc2)c1

>  <QUANTITY NAME>
growth inhibition

>  <RECORDED RESULT>
1

$$$$
>  <SMILES>
CCOC(=O)c1sc(N/N=C2\NC(=O)/C(=C/c3ccc([N+](=O)[O-])cc3)S2)nc1C

>  <QUANTITY NAME>
growth inhibition

>  <RECORDED RESULT>
-26

$$$$
>  <SMILES>
CN(C)CC/[N+]([O-])=C(/c1ccccc1)C12CC3CC(CC(C3)C1)C2

>  <QUANTITY NAME>
growth inhibition

>  <RECORDED RESULT>
1

$$$$
>  <SMILES>
CC(=O)Nc1ccc(-c2nnc(SCC(=O)Nc3cccc(Cl)c3)o2)cc1

>  <QUANTITY NAME>
growth inhibition

>  <RECORDED RESULT>
8

$$$$
>  <SMILES>
COc1cc(C)cc2c(-c3c(O)cc(O)c4c3C[C@H](C)N[C@H]4C)cc(-c3cc(-c4c(O)cc(O)c5c4C[C@H](C)N[C@H]5C)c4cc(C)cc(OC)c4c3O)c(O)c12

>  <QUANTITY NAME>
growth inhibition

>  <RECORDED RESULT>
0

$$$$

Query: Reported growth inhibition, compound `O=c1oc(-c2ccc(Cl)c([N+](=O)[O-])c2)ns1` : ____
Reply: 1

Query: Reported growth inhibition, compound `O=C(C[n+]1ccccc1Cl)c1ccc(Oc2ccc(C(=O)C[n+]3ccccc3Cl)cc2)cc1` : ____
Reply: -40

Query: Reported growth inhibition, compound `CCOC(=O)c1ccc(C(C)C)cc1` : ____
Reply: 4

Query: Reported growth inhibition, compound `CCCCCSc1nc2ncnc(N)c2[nH]1` : ____
Reply: 7

Query: Reported growth inhibition, compound `Fc1ccc(C2(CCCN3CCc4[nH]c5cc(F)ccc5c4C3)OCCO2)cc1` : ____
Reply: 24
